Each entry below carries its reported pEC50.
# TESTED_ON: sGC α1/β1 heterodimer (Homo sapiens, UniProt Q02108+Q02153)
# Sequence (Q02108 whole entry): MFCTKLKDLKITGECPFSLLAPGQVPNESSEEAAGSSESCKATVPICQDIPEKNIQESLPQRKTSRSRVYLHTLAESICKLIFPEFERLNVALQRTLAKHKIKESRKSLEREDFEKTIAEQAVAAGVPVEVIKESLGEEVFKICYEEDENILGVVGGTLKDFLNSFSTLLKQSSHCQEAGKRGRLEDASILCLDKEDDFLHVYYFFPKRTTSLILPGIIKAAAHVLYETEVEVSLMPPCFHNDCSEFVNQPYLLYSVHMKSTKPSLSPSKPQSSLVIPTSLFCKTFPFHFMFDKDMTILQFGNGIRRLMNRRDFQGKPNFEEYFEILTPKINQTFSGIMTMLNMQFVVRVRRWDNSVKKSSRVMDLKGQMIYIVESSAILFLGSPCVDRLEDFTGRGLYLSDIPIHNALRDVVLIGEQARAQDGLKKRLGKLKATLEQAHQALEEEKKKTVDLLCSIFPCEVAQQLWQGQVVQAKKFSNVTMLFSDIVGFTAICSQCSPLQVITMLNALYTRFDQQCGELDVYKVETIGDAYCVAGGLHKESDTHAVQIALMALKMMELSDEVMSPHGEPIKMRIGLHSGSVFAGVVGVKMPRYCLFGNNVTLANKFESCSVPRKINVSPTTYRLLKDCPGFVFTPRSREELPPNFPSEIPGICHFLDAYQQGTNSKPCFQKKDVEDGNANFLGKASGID
# Sequence (Q02153 whole entry): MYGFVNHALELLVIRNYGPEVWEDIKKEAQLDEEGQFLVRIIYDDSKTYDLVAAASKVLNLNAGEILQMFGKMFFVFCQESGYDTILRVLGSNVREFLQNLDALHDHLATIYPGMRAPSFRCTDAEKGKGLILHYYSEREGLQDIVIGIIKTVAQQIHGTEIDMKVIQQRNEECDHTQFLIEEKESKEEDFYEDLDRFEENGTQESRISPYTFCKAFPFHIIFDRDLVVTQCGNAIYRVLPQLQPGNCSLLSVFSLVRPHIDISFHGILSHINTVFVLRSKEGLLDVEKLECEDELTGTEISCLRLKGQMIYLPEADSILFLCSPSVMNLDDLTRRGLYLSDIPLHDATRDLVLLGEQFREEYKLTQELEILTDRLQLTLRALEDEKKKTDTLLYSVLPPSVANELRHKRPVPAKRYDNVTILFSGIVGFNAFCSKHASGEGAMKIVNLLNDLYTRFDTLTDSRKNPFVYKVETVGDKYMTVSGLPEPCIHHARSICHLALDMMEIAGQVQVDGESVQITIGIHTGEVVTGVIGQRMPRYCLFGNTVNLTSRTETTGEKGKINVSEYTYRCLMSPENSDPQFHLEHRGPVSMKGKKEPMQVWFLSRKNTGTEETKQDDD
# PROTOCOL_DESCRIPTION: Cell-based sGC functional assay (CASA assay): cGMP generation in CHO-K1/sGC cells, HTRF detection
# CONDITION_LABEL: inflection point (IP) of cGMP generation in CHO-K1/sGC cells, 4P fit; activity expressed as percentage of Compound A
// scale note: pEC50 = -log10(conc_M); give the bare number

Please review the entries below; each comes with its answer.
MOLECULE | MEASUREMENT_KIND | RESULT_VALUE
Cc1nc2c(CCC(F)(F)C(F)(F)F)nc(-c3nc(N)c4c(n3)NC(=O)C4(C)c3ccc(F)cc3)cn2c1C#N (stereo not drawn) [Example 274A] | pEC50 | 6.62
CC1(c2ccccc2)C(=O)Nc2nc(-c3cn4c(Br)cnc4c(CCC(F)(F)F)n3)nc(N)c21 (stereo not drawn) [Example 265B] | pEC50 | 6.19

Next:
# pEC50 (molecule: CCCc1nc(-c2nc(N)c3c(n2)NC(=O)C3(C)c2ccc(C(F)(F)F)cn2)cn2ccnc12 (stereo not drawn) [Example 132B] ) is 6.02

====

# TESTED_ON: sGC α1/β1 heterodimer (Homo sapiens, UniProt Q02108+Q02153)
# Construct: expressed in transfected cells; host or cells: CHO-K1 (clone #7, CHO-K1/sGC)
# PROTOCOL_DESCRIPTION: Cell-based sGC functional assay (CASA assay): cGMP generation in CHO-K1/sGC cells, HTRF detection
# CONDITION_LABEL: CHO-K1, percent activation relative to standard Compound A in CHO-K1/sGC cells; read-out: % Act.
Each entry below carries its reported Emax.
Your answer is read as %, so omit the unit and give the number.

Please review the entries below; each comes with its answer.
MOLECULE | MEASUREMENT_UNIT | Emax
CC1(c2ccc(F)cc2F)C(=O)Nc2nc(-c3cn4ccnc4cn3)nc(N)c21 (stereo not shown) [Example 139A] | % | 118
Cc1cncc(C2(C3CC3)C(=O)Nc3nc(-c4cn5ccnc5c(CCCC(F)(F)F)n4)nc(N)c32)n1 (single isomer, unassigned) [Example 365B] | % | 108
CC1(c2ccc(F)c(Cl)c2)C(=O)Nc2nc(-c3cn4ccnc4c(CCC(F)(F)F)n3)nc(N)c21 (stereo not shown) [Example 193B] | % | 111
Nc1nc(-c2cn3ccnc3c(CCC(F)(F)C(F)(F)F)n2)nc2c1C(c1ccc(Cl)cn1)(C1CC1)C(=O)N2 (stereo not shown) [Example 245B] | % | 118
Nc1nc(-c2cn3ccnc3c(CCC(F)(F)C(F)(F)F)n2)nc2c1C(c1ccc(Cl)cc1)(C1CC1)C(=O)N2 (stereo not shown) [Example 235B] | % | 148

# Emax (molecule: Nc1nc(-c2cn3ccnc3c(Cc3ccccc3)n2)nc2c1C(C(=O)NC1CC1)(C1CC1)C(=O)N2 (single isomer, unassigned) [Example 40B] ) is 127

# Emax (molecule: COc1ccc(C2(C)C(=O)Nc3nc(-c4cn5ccnc5c(CCCC(F)(F)F)n4)nc(N)c32)nc1 (stereo not shown) [Example 212B] ) is 83

# Emax (molecule: CCc1nnc(C2(C3CC3)C(=O)Nc3nc(-c4cn5ccnc5c(CCC(F)(F)C(F)(F)F)n4)nc(N)c32)s1 (single isomer, unassigned) [Example 30A] ) is 113

# Emax (molecule: C#CC1(C)C(=O)Nc2nc(-c3cn4ccnc4c(CCC(F)(F)C(F)(F)F)n3)nc(N)c21 (stereo not shown) [Example 66A] ) is 127

# Emax (molecule: CC1(C(=O)NC2CC2)C(=O)Nc2nc(-c3cn4ccnc4c(Cc4cccc(F)c4)n3)nc(N)c21 (single isomer, unassigned) [Example 31A] ) is 141

====

# TESTED_ON: sGC α1/β1 heterodimer (Homo sapiens, UniProt Q02108+Q02153)
# Construct: expressed in transfected cells; host or cells: CHO-K1 (clone #7, CHO-K1/sGC)
# PROTOCOL_DESCRIPTION: Cell-based sGC functional assay (CASA assay): cGMP generation in CHO-K1/sGC cells, HTRF detection
# CONDITION_LABEL: CHO-K1, percent activation relative to standard Compound A in CHO-K1/sGC cells; read-out: % Act.
MEASUREMENT_KIND: Emax (%)
Your answer is read as %, so omit the unit and give the number.

Please review the entries below; each comes with its answer.
MOLECULE | MEASUREMENT_UNIT | Emax
CCCCc1nc(-c2nc(N)c3c(n2)NC(=O)C3(c2ccc(F)c(F)c2)C2CC2)cn2ccnc12 (stereo not drawn) [Example 330A] | % | 142
CC1(c2ccc(F)cc2)C(=O)Nc2nc(-c3cn4cc(C(F)(F)F)nc4c(Cc4ccccc4)n3)nc(N)c21 (stereo not drawn) [Example 154A] | % | 120
CC1(C)C(=O)Nc2nc(-c3cn4cc(C(F)(F)F)nc4c(Cc4cccc(F)c4)n3)nc(N)c21 | % | 99

# Emax (molecule: Cc1cn2cc(-c3nc(N)c4c(n3)NC(=O)C4(C)c3ccc(F)cn3)nc(Cc3ccc(F)cc3)c2n1 (stereo not drawn) [Example 162B] ) is 88

# Emax (molecule: CCCc1nc(-c2nc(N)c3c(n2)NC(=O)C3(c2ccc(Cl)cc2F)C2CC2)cn2ccnc12 (stereo not drawn) [Example 360A] ) is 129

# Emax (molecule: CC1(c2ccc(OC(F)F)cn2)C(=O)Nc2nc(-c3cn4ccnc4c(CCCC(F)(F)F)n3)nc(N)c21 (stereo not drawn) [Example 214A] ) is 92

# Emax (molecule: Cc1ccc(C2(C)C(=O)Nc3nc(-c4cn5ccnc5c(CCC(F)(F)C(F)(F)F)n4)nc(N)c32)cn1 (stereo not drawn) [Example 221A] ) is 107

# Emax (molecule: CCC1(C)C(=O)Nc2nc(-c3cn4ccnc4c(Cc4ccccc4)n3)nc(N)c21 (single isomer, unassigned) [Example 84B] ) is 100

# Emax (molecule: CC1(c2ccc(Cl)cc2F)C(=O)Nc2nc(-c3cn4ccnc4cn3)nc(N)c21 (stereo not drawn) [Example 136A] ) is 129

# Emax (molecule: CC(C)Oc1ccc(C2(C)C(=O)Nc3nc(-c4cn5ccnc5c(CCC(F)(F)C(F)(F)F)n4)nc(N)c32)cn1 (stereo not drawn) [Example 241B] ) is 99

# Emax (molecule: CCCCc1nc(-c2nc(N)c3c(n2)NC(=O)C3(c2ccc(Cl)cc2)C2CC2)cn2ccnc12 (stereo not drawn) [Example 332B] ) is 141

# Emax (molecule: CCC1(c2ccc(Cl)c(F)c2)C(=O)Nc2nc(-c3cn4ccnc4c(CCC(F)(F)F)n3)nc(N)c21 (stereo not drawn) [Example 199A] ) is 101

# Emax (molecule: CC(C)C1(C)C(=O)Nc2nc(-c3cn4ccnc4c(Cc4ccccc4)n3)nc(N)c21 (stereo not drawn) [Example 80A] ) is 125

# Emax (molecule: COc1ccc(C2(C)C(=O)Nc3nc(-c4cn5ccnc5c(CCC(F)(F)C(F)(F)F)n4)nc(N)c32)cn1 (stereo not drawn) [Example 236B] ) is 91

# Emax (molecule: Cc1cn2cc(-c3nc(N)c4c(n3)NC(=O)C4(C)c3ccc(F)cc3)nc(CCC(F)(F)C(F)(F)F)c2n1 (stereo not drawn) [Example 170A] ) is 104

# Emax (molecule: CCCc1ccc(C2(C)C(=O)Nc3nc(-c4cn5ccnc5c(CCC(F)(F)C(F)(F)F)n4)nc(N)c32)cn1 (stereo not drawn) [Example 250B] ) is 87

# Emax (molecule: Nc1nc(-c2cn3ccnc3c(CCCC(F)(F)F)n2)nc2c1C(c1ccc(F)cc1)(C1CC1)C(=O)N2 (stereo not drawn) [Example 205B] ) is 127

# Emax (molecule: CC(C)c1nc(C2(C)C(=O)Nc3nc(-c4cn5ccnc5c(CCC(F)(F)C(F)(F)F)n4)nc(N)c32)no1 (single isomer, unassigned) [Example 321B] ) is 126

# Emax (molecule: CC1(c2ccc(F)cc2)C(=O)Nc2nc(-c3cn4c(Br)cnc4c(CCC(F)(F)C(F)(F)F)n3)nc(N)c21 (stereo not drawn) [Example 254A] ) is 126

====

Each entry below carries its reported pEC50.
# TESTED_ON: sGC α1/β1 heterodimer (Homo sapiens, UniProt Q02108+Q02153)
# PROTOCOL_DESCRIPTION: Cell-based sGC functional assay (CASA assay): cGMP generation in CHO-K1/sGC cells, HTRF detection
# CONDITION_LABEL: inflection point (IP) of cGMP generation in CHO-K1/sGC cells, 4P fit; activity expressed as percentage of Compound A
// scale note: pEC50 = -log10(conc_M); give the bare number

Please review the entries below; each comes with its answer.
MOLECULE | pEC50
Nc1nc(-c2cn3cc(C(F)(F)F)nc3c(Cc3ccccc3F)n2)nc2c1C(C(=O)NC1CC1)(C1CC1)C(=O)N2 (single isomer, unassigned) [Example 45B] | 6.66
CCC1(c2ccc(Cl)cc2)C(=O)Nc2nc(-c3cn4ccnc4c(CCC(F)(F)C(F)(F)F)n3)nc(N)c21 (centres unmarked) [Example 247B] | 6.82
CC1(c2ccccc2)C(=O)Nc2nc(-c3cn4c(Cl)cnc4c(CCC(F)(F)C(F)(F)F)n3)nc(N)c21 (centres unmarked) [Example 256B] | 7.62
Nc1nc(-c2cn3ccnc3c(Cc3ccccc3)n2)nc2c1C(C(=O)NC1CC1)(C1CC1)C(=O)N2 (single isomer, unassigned) [Example 40B] | 7.57

Next:
# pEC50 (molecule: CC1(c2ccc(C(F)(F)F)cc2)C(=O)Nc2nc(-c3cn4ccnc4cn3)nc(N)c21 (centres unmarked) [Example 143B] ) is 6.60
